- assay text: molar heat capacity at constant pressure
- measurement context: 340.15 K; 101.33 kPa; Crystal; Small sample (50 mg) DSC
± gives the expanded uncertainty stated by the source.
quantity name: molar heat capacity at constant pressure

Reference set (4 entries):
Data point: OC[C@@H](O)[C@@H](O)[C@H](O)[C@H](O)CO [D-mannitol] ; molar heat capacity at constant pressure = 267.34 ± 43 J/K/mol

GET /value?item= OC[C@@H](O)[C@@H](O)CO [meso-1,2,3,4-butanetetrol] &field=molar heat capacity at constant pressure returns 189.94 ± 23 J/K/mol

Form field molar heat capacity at constant pressure, entry OC[C@@H](O)C(O)[C@H](O)CO [D-arabitol] : 240.89 ± 20 J/K/mol

Kindly note the recorded molar heat capacity at constant pressure for OC[C@@H](O)[C@H](O)[C@@H](O)CO [xylitol] , which is 244.86 ± 15 J/K/mol

Next:
Record O[C@H]1[C@H](O)[C@@H](O)[C@H](O)[C@@H](O)[C@H]1O [cis-1,2,3,5-trans-4,6-cyclohexanehexol] , field molar heat capacity at constant pressure: 254.49 ± 36 J/K/mol
